- tested.target: T1, human integrin β1 (human, UniProt P05556 21-798)
- T1 construct: whole, on cells; the antibodies are described as anti-human integrin β1; also called CD29; ITGB1
- test.description: competition FACS on Jurkat cells; competitor murine OS2966 (0.1875 µg/ml)
Each record here notes measured relative IC50 (IC50 of test antibody / IC50 of chimeric antibody).

// worked examples, relative IC50 (IC50 of test antibody / IC50 of chimeric antibody) included
binder: composite human antibody variant H5 (antibody, V domains shown, also called VH5VK2) VH: EVQLVQSGAEVKKPGSSVKVSCKASGYTFTGYILSWVRQAPGQGLEWIGWVDPEYGSTDSAEKFKKRVTITADISTSTAYMELSSLRSEDTATYFCTRYYDGYYRRWFAYWGQGTLVTVSS VL: DIQMTQSPSSLSASVGDRVTITCLASEGISNNLAWHQQKPGKAPKLLIYGAHSLHDGVPDRFSGSGSGTDYTLKISRVEAEDVGVYYCQQGYKYPITFGGGTKVEIK
result: 0.85 ratio to chimeric antibody

binder: composite human antibody variant H8 (antibody, V domains shown, also called VH4VK2) VH: EVQLVQSGAEVKKPGSSVKVSCKASGYTFTGYILSWVRQAPGQGLEWIGWVDPEYGSTDSAEKFKKRATITADISTSTAYMELSSLRSEDTATYFCTRYYDGYYRRWFAYWGQGTLVTVSS VL: DIQMTQSPSSLSASVGDRVTITCLASEGISNNLAWHQQKPGKAPKLLIYGAHSLHDGVPDRFSGSGSGTDYTLKISRVEAEDVGVYYCQQGYKYPITFGGGTKVEIK
result: 1.18 ratio to chimeric antibody

binder: composite human antibody variant H1 (antibody, V domains shown, also called VH5VK3) VH: EVQLVQSGAEVKKPGSSVKVSCKASGYTFTGYILSWVRQAPGQGLEWIGWVDPEYGSTDSAEKFKKRVTITADISTSTAYMELSSLRSEDTATYFCTRYYDGYYRRWFAYWGQGTLVTVSS VL: DIQMTQSPSSLSASVGDRVTITCLASEGISNNLAWYQQKPGKAPKLLIYGAHSLHDGVPDRFSGSGSGTDYTLKISRVEAEDVGVYYCQQGYKYPITFGGGTKVEIK
result: 0.88 ratio to chimeric antibody

binder: composite human antibody variant H15 (antibody, V domains shown, also called VH2VK2) VH: EVQLVQSGAEVKKPGSSVKISCKASGYTFTGYILSWVRQAPGQGLEWIGWVDPEYGSTDSAEKFKKRATLTADISTNTAYIELSSLRSEDTATYFCTRYYDGYYRRWFAYWGQGTLVTVSS VL: DIQMTQSPSSLSASVGDRVTITCLASEGISNNLAWHQQKPGKAPKLLIYGAHSLHDGVPDRFSGSGSGTDYTLKISRVEAEDVGVYYCQQGYKYPITFGGGTKVEIK
result: 1.32 ratio to chimeric antibody

Query :: Dear colleague, please send me the reported relative IC50 (IC50 of test antibody / IC50 of chimeric antibody) for composite human antibody variant H4 (antibody, V domains shown, also called VH5VK4) VH: EVQLVQSGAEVKKPGSSVKVSCKASGYTFTGYILSWVRQAPGQGLEWIGWVDPEYGSTDSAEKFKKRVTITADISTSTAYMELSSLRSEDTATYFCTRYYDGYYRRWFAYWGQGTLVTVSS VL: DIQMTQSPSSLSASVGDRVTITCLASEGISNNLAWYQQKPGKAPKLLIYGAHSLHDGVPDRFSGSGSGTDFTLKISRVEAEDVGVYYCQQGYKYPITFGGGTKVEIK when you can.
Result :: 3.26 ratio to chimeric antibody

Entry source: patent US20180312591A1
